Attribution: PubChem BioAssay (NCI)

Test system: OVCAR-8 ovarian
Assay: NCI-60 one-dose screen, 48 h
Conditions: 10 µM unless noted
Description: Growth inhibition of the OVCAR-8 human tumor cell line is measured as a screen for anti-cancer activity. Cells are grown in 96 well plates and exposed to the test compound for 48 hours. Compounds are tested at a single concentration, which is 10^-5 M for most compounds. The reported endpoint is percent growth (GI% or GIPRCNT), where numbers from 0 - 100% represent growth inhibition, and numbers from -100% - 0 represent cell death. For example, a value of 40 represents 60% growth inhibition. […]
About 83,000 compounds went through this panel and 20% of them were active in at least one assay; those are over-represented in the sample as a whole. Activity calls are given as the source filed them. Rule for the calls: active = growth percent below 10; inactive = the rest.
Select the matching outcome among T = active, F = inactive

Per the assay record, what outcome was assigned to COc1ccc(C2=NN3C(C2)c2cc(Br)ccc2OC3c2ccncc2)cc1 (stereo not given) ?
F

Per the assay record, what outcome was assigned to COc1nc2ccccc2cc1/C=C1/C=C(c2ccccc2)NC1=O ?
F

Called result for C(CCCSC1=NCCN1)CCSC1=NCCN1
F

What did the test return for C=C1C(=O)O[C@H]2[C@H]1CC/C(COC(=O)NCc1ccc(Cn3c(=O)sn(CCCC)c3=O)cc1)=C\CC[C@@]1(C)O[C@@H]21 ?
F

Name the outcome recorded for Cc1ccc(-c2nnc(SCc3nc(N)nc(Nc4ccccc4F)n3)n2-c2ccccc2)cc1 in the assay.
F

Write down the call the test reported for this compound. Item: COc1cc(OCc2cccc(-c3ccc4c(c3)OCCO4)c2C)cc(OC)c1C=O
F

Kindly provide the recorded test outcome for the following compound: O=C(O)/C=C\C(=O)Nc1ccc2c(c1)Cc1cc(F)ccc1-2
F

For O=C1Nc2ccccc2/C1=C/c1cccn1CCCCCCn1c2ccccc2c(=O)c2ccccc21 , which call appears in the assay record?
F

Record lookup: outcome of this test for CCN=c1sc2c(n1NC(=O)c1cc3ccc1CCc1ccc(cc1)CC3)C(=O)c1ccccc1C2=O ?
T

Call for entry COc1cc(C(=O)/C=C/c2c(-c3cccs3)nc3sc(C)cn23)cc(OC)c1OC :
T

Record lookup: outcome of this test for Cc1cc(=O)oc2cc(Oc3nc(-c4ccccc4)cn4c(-c5ccccc5)cnc34)ccc12 ?
F

How was COC(=O)[C@H](C)NC(=O)[C@@H]1CCCN1C(=O)CNC(=O)[C@H](C)N classified in this test?
F

Outcome? O=c1ccc2nc(-c3ccccc3)nn(-c3ccccn3)c-2c1
F

Check the results log: what was the call for N#CC1=C(N)Oc2c(ccc3cccnc23)C1c1ccccc1 (stereo not given) ?
F

Per the assay record, what outcome was assigned to COc1cc(CNC(=O)CCCC/C=C/C(C)C)ccc1OCc1cn(-c2ccc(C(F)(F)F)cc2)nn1 ?
F

Hi, sorry to bother you, what did the test record for O=C1c2c(c3c4cccnc4[nH]c3c3ccc4ccccc4c23)C(=O)N1O ?
F

Dear colleague, could you share the recorded outcome for N#Cc1nn(-c2ccccn2)c(N)c1C#N when you have a moment?
F

Test call, this compound: c1ccc(-c2cn3nc(-c4c[nH]c5ccccc45)sc3n2)cc1
F

Just curious, what result did COc1ccc(/C(C)=C(\c2ccc(Cl)cc2)c2ccc(OCCCN(C)C)cc2)cc1 get here?
F

Test call for this compound, please: COc1ccc(C2=C/C(=C\c3ccccc3O)C(=O)N2Cc2ccccc2)cc1
F

Entry C[C@@H]1N=C(c2ccc(Cl)cc2Cl)Nc2nc3ccccn3c2C1=O : call = ?
F

Recorded call for COc1cccc(NC(=O)c2sc3nc(C)c(C(=O)c4ccccc4)cc3c2N)c1 ?
F

Hey, what did the test say about O=C1NCCN1/N=C/c1c(Cl)n(Cc2ccc(Cl)cc2)c2ccccc12 ?
F

Kindly provide the recorded test outcome for the following compound: Cc1c(N2CCCCC2)[nH]c2ccccc12
F

Tell me the assay call for C#CCOc1cccc(-c2ncnc3cc(NC(=O)CCl)ccc23)c1 please.
T

Any idea what this test logged for C=CCNc1nc(O)c(/C=C2\C=Nc3ncccc32)s1 ?
F

In this assay, the call recorded for O=C(NS(=O)(=O)c1ccccc1)n1cc(-c2ccncc2)c(-c2cc(O)cc(Cl)c2)n1 was what?
F

Returns: the outcome recorded for [2H]C([2H])([2H])Oc1c(F)cccc1/C=C/C(=O)/C=C(O)/C=C/c1cccc(F)c1OC([2H])([2H])[2H] in this assay.
F

For COc1ccccc1/C=C/C1=C(C)CCC(c2ccccc2OC)C1C (stereo not given) , which call appears in the assay record?
F

What did the test return for N#Cc1c(-c2ccc(Cl)cc2)nc(NN=Cc2cccc(Cl)c2)nc1N1CCOCC1 ?
F

Could you please tell me the result logged for CC(=O)Cc1nsc(NC(=O)c2cc(-c3cc(Cl)ccc3Cl)oc2C)n1 in this assay?
F

Tell me the assay call for COC(=O)c1nc(-c2ccc(C)cc2)oc1N1CCOCC1 please.
F

Per the records of this test, what outcome belongs to CCc1ccc(Cc2cnc(NC(=O)c3cc(C)oc3C)s2)cc1 ?
F

Tell me the recorded outcome of this test for CCCCCCCCNc1ncnc2c1ncn2Cc1nnc2c3ccccc3c(Cl)nn12 .
F

Could you kindly confirm the outcome this assay logged for O=C1/C(=C/c2ccc(-c3ccc(Cl)cc3)o2)SC(=S)N1CCc1ccc(O)cc1 ?
F

Any idea what this test logged for O=C1c2c(c3c4cc(F)ccc4oc3c3[nH]c4ccccc4c23)C(=O)N1O ?
F

What outcome does the record of this test show for CC(C)=CCC[C@](C)(O)C1CC[C@]2(C)[C@@H]1CC[C@@H]1[C@@]3(C)CC/C(=N\OCCC#N)C(C)(C)[C@@H]3CC[C@]12C (stereo not given in full) ?
F

State the result this test recorded for CC(C)(C#N)c1cc(C(=O)Nc2cc(Nc3ncccc3-c3ncnc4nc[nH]c34)ccc2F)cc(C(F)(F)F)c1 .
F

Kindly provide the recorded test outcome for the following compound: COc1ccc(-c2cc(-c3ccc(N(C)C)cc3)nc(NC(=O)c3cccnc3)n2)cc1
F

Field: outcome | Entry: COc1ccc(-c2cc(-c3ccc(Nc4nc(Nc5ccc(Cl)cc5)nc(Nc5ccc(Cl)cc5)n4)cc3)no2)cc1
F

---

tested on: SK-OV-3 ovarian; assay: NCI-60 one-dose screen, 48 h; details: 10 µM unless noted
About 83,000 compounds went through this panel and 20% of them were active in at least one assay; those are over-represented in the sample as a whole. Calls of active or inactive are those of the source. How the source made its calls: active means growth percent below 10; inactive means the rest.
A correct response names exactly one class from true for active, false for inactive

Called result for C=C(C)[C@@H]1CC[C@]2(C#N)CC[C@]3(C)[C@H](CC[C@@H]4[C@@]5(C)CCCNC(C)(C)[C@@H]5CC[C@]43C)[C@@H]12
false

How was C=C(C)[C@@H]1CC[C@]2(COCCCNCCCN)CC[C@]3(C)[C@H](CC[C@@H]4[C@@]5(C)CC[C@H](OCCCN)C(C)(C)[C@@H]5CC[C@]43C)[C@@H]12 classified in this test?
false

Query: recorded result category for O=C(CN1C(=O)c2ccccc2S1(=O)=O)Nc1nc(-c2cc3ccccc3oc2=O)cs1 in this test
false

What classification did Nc1ncnc2c1N=C(c1ccc([N+](=O)[O-])cc1)CC(c1ccc3c(c1)OCO3)N2 (centres undefined) end up with in this test?
false

Fill in: this test's call for O=c1cc(-c2nccc3c2[nH]c2ccccc23)c2cc(Cl)ccc2o1 is ___
false

Which outcome was assigned to COc1ccc(-c2ccc(-c3ccc(C(=N)N)nc3)s2)cc1 in this test?
false

Returns: the outcome recorded for CC/C(=C(/c1ccc(Cl)cc1)c1ccc(OCCN2CCCCCC2)cc1)c1ccccc1 in this assay.
false

What was the test verdict on C#CCOc1ccc(C2=NN(CCCC)C3N=C(Cl)c4ncn(CCCC)c4N23)cc1OCC#C (centres undefined) ?
false

What classification did c1ccc(-c2nc(N3CCNCC3)c3oc(-c4ccccc4)nc3n2)cc1 end up with in this test?
true

Lab log entry: CCCn1cnc2c(c1=N)C(c1ccc(Cl)cc1)c1sc3c(F)cccc3c1O2 (centres undefined) — outcome as called in the assay?
false

Tell me the recorded outcome of this test for CN(C)C(=S)NN=C(c1ccccn1)c1ccccn1 .
false

Hi, sorry to bother you, what did the test record for COc1cc2cc(Oc3ccc(NC(=O)Nc4ccc(Cl)c(Cl)c4)cc3)c(C)nc2cc1OCCN1CCCCC1 ?
false

# fetch the recorded call for CC(=O)O[C@H]1C[C@@]2(C)[C@@H](C[C@@H](O)[C@H]3[C@@]4(C)CC[C@H](N5CCCC5)[C@@H](C)[C@@H]4CC[C@@]32C)/C1=C(\CCC=C(C)C)C(=O)O here
false

Per the assay record, what outcome was assigned to Cc1nn(C)c2ncnc(Nc3ccccc3Br)c12 ?
false

Each compound tested received a call. Report the one for CCC(C)C(N)C(=O)NC(CC(C)C)C(=O)N1CCCC1C(=O)NC(Cc1c[nH]c2ccccc12)C(=O)NC(CCCCN)C(=O)NC(Cc1c[nH]c2ccccc12)C(=O)N1CCCC1C(=O)NC(Cc1c[nH]c2ccccc12)C(=O)NC(Cc1c[nH]c2ccccc12)C(=O)N1CCCC1C(=O)NC(Cc1c[nH]c2ccccc12)C(=O)NC(CCCNC(=N)N)C(=O)NC(CCCNC(=N)N)C(N)=O (centres undefined) .
false

Which outcome did this test record for the compound CN1CCN(CC(=O)N(C)c2ccc(N=C(c3ccccc3)c3c(O)[nH]c4ccc([N+](=O)[O-])cc34)cc2)CC1 ?
false

Answer briefly: the call reported for CCCCC#Cc1c(I)n(C2OC(CO[Si](C)(C)C(C)(C)C)C3OC(C)(C)OC32)c(=O)[nH]c1=O (centres undefined) in this assay.
false

// outcome(item) with item = O=C(Nc1ccc(Oc2cccc(F)c2)c(Cl)c1)c1cnccn1
false

Hi team, can someone confirm the assay call for CCOC(=O)c1c(C)n2c(=O)cc(C)c3c(OC(C)=O)c(OC(C)=O)cc1c32 ?
false

Assay outcome for Nc1n[nH]c2cccc(C#Cc3cccc(C(=O)Nc4ccc(Cl)c(C(F)(F)F)c4)c3)c12 : what was it?
false

Which outcome was entered for the compound CCOC(=O)c1cc(C(=O)c2cc(OC)cc(OC)c2)n2ncccc12 in this test?
false

Hi, sorry to bother you, what did the test record for CCCCC1=C(Br)C(=O)c2ncccc2C1=O ?
false

For this compound, state the assay outcome: CC(=O)O[C@H]1CC[C@@]2(C)C(=CC[C@@H]3[C@@H]2CC[C@]2(C)C(Cl)=C(c4nc5ccc(Cl)cn5c4NC(C)(C)C)C[C@@H]32)C1
false

Hi, sorry to bother you, what did the test record for COc1ccc(-n2c(=O)n(-c3ccc(-c4nc5ccc(F)cc5s4)cc3)c(=O)c3cccnc32)cc1 ?
false

Call for entry COc1ccc(C(=O)/C=C/c2ccc(C)cc2)cc1S(N)(=O)=O :
false

Record request — test call for COc1cccc(/C=C/C(=O)/C=C(/C=C/c2cccc(OC)c2OC)OB(F)F)c1OC
false

Assay outcome for CCCCCCCCCCCCCCCCCCOc1ccccc1CC(=O)OCC[N+]1(C)CCCCC1 : what was it?
false

Recorded test call requested for CN1CC(c2ccccc2)C(C(=O)c2ccc(Br)cc2)C12C(=O)Nc1ccccc12 (centres undefined)
false

Given FC(F)(F)c1cc(N2CCCCC2)nc(NCCCNc2ccnc3cc(Cl)ccc23)n1 , state the outcome it received in this test.
false

Give the logged outcome of this assay for the following compound: O=C(Nc1cccc2c1C(=O)c1cccc(NC(=O)c3ccc(C(=O)Nc4cccc5c4C(=O)c4cccc(NC(=O)c6ccccc6)c4C5=O)cc3)c1C2=O)c1ccccc1
false

For COC(=O)c1cc(-c2ccc(OC)c(OC)c2)[nH]c1N/N=C/c1c(Cl)cccc1Cl , which call appears in the assay record?
false

Please indicate how the test categorized c1ccc2[nH]c(-c3ccc(-c4nccc5c4[nH]c4ccccc45)cc3)nc2c1 .
false

What was the test verdict on Cn1cc(-c2nc(-c3c[nH]c4c(Cl)nccc34)cs2)c2ccccc21 ?
false

Write down the call the test reported for this compound. Item: Nc1ccc(Cl)c2c(=O)c3ccccc3[nH]c12
false
